Just for reference, ChEMBL document CHEMBL1156702 is where these values come from.

Method notes: Cytotoxicity against human H4 cells after 72 hrs
Type: cell-based
Test readout: CC50 at 72 h (µM)
Answer in µM, number only, no unit symbol.

In [3]: df
Out[3]:
                               query_smiles  result_unit  numeric_readout
0  C=C1[C@@H](CO)O[C@H](n2ccc(=O)[nH]c2=O)[C@@H](O)[C@H]1O           µM             1850
1  C=C1C=C[C@@H](n2ccc(=O)[nH]c2=O)O[C@@H]1COC(c1ccccc1)(c1ccccc1)c1ccccc1           µM             1040
2  O=C1C=C[C@@H](n2ccc(=O)[nH]c2=O)O[C@@H]1CO           µM             2100

Please examine the following record next.
GET /values?readout=CC50 at 72 h&item= "C=C1C=C[C@@H](n2ccc(=O)[nH]c2=O)O[C@@H]1CO"
2120

====

Method notes: Cytotoxicity against human Caco-2 cells after 72 hrs
Format: cell-based
Test readout: CC50 at 72 h (µM)
Answer in µM, number only, no unit symbol.

GET /values?readout=CC50 at 72 h&item= "Cc1cn([C@H]2C[C@H](N=[N+]=[N-])[C@@H](CO)O2)c(=O)[nH]c1=O"
56.1
